Cited source for all entries: PubChem BioAssay AID504848

EXPERIMENT_NOTES: Confirmation screen for delayed death inhibitors of the malarial parasite plastid, 96 hour incubation; note: nearly all actives have a fitted effect of over 60% in size
SETTINGS: P. falciparum luciferase growth in erythrocytes; series mostly up to 28.7 µM
From the text: The goal of this screen is to discover new antimalarial compounds that act by inhibiting the development of the apicoplast in the malarial parasite Plasmodium falciparum. The biochemical processes that make this organelle essential for erythrocytic stage parasites are not well understood. […] Growth inhibition is detected by a decrease in luciferase activity. […]
About 1,400 (61%) of roughly 2,300 compounds were called active. About 29% were inconclusive and are not listed. Calls come from the whole dose curve; as a rule, active = well fitted inhibition curve with a large enough effect; inconclusive = small, poorly fitted or top-dose-only effect, or effect the other way; inactive = no such curve, though single readings can be large or run the other way. The set was probably picked from earlier hits. The list shows a part of the results.
// one of Yes = active, No = inactive, no free text

CCC(=O)N1CCN(c2ccc(NC(=O)c3ccc([N+](=O)[O-])o3)cc2Cl)CC1	Yes

Prompt: Query: recorded result category for CCCC(=O)N1CCN(c2ccc(NC(=O)c3ccc([N+](=O)[O-])o3)cc2)CC1 in this test
Response: Yes

Prompt: Query: recorded result category for Cc1ccc(N2C(=O)N3[C@H](c4ccc(F)cc4)[C@@H]4C(=O)N(C5CCCCC5)C(=O)[C@@H]4[C@]3(Cc3ccccc3)C2=O)cc1 in this test
Response: Yes

Prompt: Query: recorded result category for Cc1ccc(C(=O)NC2CCCC2)cc1S(=O)(=O)N1CCCCC1 in this test
Response: Yes

Prompt: Query: recorded result category for O=C(c1ccc([N+](=O)[O-])cc1)n1nc(-c2ccccc2)nc1NCc1ccc(F)cc1 in this test
Response: Yes
